assayedTarget: Serine/threonine-protein kinase pim-2 (Homo sapiens) (UniProt Q9P1W9);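 further: each value is a mean of the inhibition measurements against the kinase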
Sequence (Q9P1W9 whole entry, looked up): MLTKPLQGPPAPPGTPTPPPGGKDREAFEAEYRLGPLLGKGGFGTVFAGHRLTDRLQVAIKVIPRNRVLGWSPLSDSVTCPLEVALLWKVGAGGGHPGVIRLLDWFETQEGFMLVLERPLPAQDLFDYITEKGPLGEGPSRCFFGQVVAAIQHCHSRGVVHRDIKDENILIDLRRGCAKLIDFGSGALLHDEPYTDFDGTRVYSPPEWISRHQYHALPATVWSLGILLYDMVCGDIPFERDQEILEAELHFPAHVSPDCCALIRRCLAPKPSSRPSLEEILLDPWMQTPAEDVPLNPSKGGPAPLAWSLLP
experimentalParameters: at 1 µM
readoutType: inhibition
The reply should consist of the numeric value with the unit placed after it.

Could you share which inhibition value was measured for Fc1cccc(COc2ccc(Nc3ncnc4sc(-c5ccco5)cc34)cc2Cl)c1 ? 0.73%

Could you share which inhibition value was measured for Cc1ccc(O)cc1Nc1ccnc2cc(-c3ccccn3)ccc12 ? 1.15%

Could you share which inhibition value was measured for Nc1ncc(-c2cccc(S(N)(=O)=O)c2)c2scc(-c3ccc(F)c(Cl)c3)c12 ? 0.78%

Could you share which inhibition value was measured for CS(=O)(=O)CCNCc1ccc(-c2ccc3ncnc(Nc4ccc(OCc5ccccc5)c(C(F)(F)F)c4)c3c2)o1 ? 1.13%

###

assayedTarget: RAF proto-oncogene serine/threonine-protein kinase (Homo sapiens);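 further: values are the mean percent inhibition of CRAF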
experimentalParameters: at 1 µM
Assignment: determine reported inhibition for the given compounds.
The reply should consist of the numeric value with the unit placed after it.

Could you share which inhibition value was measured for NS(=O)(=O)c1ccc(Nc2ncc(-c3ccccc3)o2)cc1 ? -4.28%

Could you share which inhibition value was measured for CCn1c(-c2nonc2N)nc2cnc(Oc3cccc(NC(=O)c4ccc(N(C)C)cc4)c3)cc21 ? -4.15%

Could you share which inhibition value was measured for CCCN(CCS(C)(=O)=O)Cc1ccc(-c2ccc3ncnc(Nc4ccc(OCc5cccc(F)c5)c(Cl)c4)c3c2)o1 ? -0.27%

Could you share which inhibition value was measured for COc1ccc(-c2nn3ncccc3c2-c2ccnc(Nc3ccc4c(c3)OCCO4)n2)cc1 ? -7.5%

Could you share which inhibition value was measured for COc1ccc(-c2oc3ncnc(N)c3c2-c2ccc(NC(=O)Nc3cc(C(F)(F)F)ccc3F)cc2)cc1 ? 5.86%

Could you share which inhibition value was measured for CCN1CCC(CC(=O)Nc2n[nH]c3nnc(-c4cccc(F)c4F)cc23)CC1 ? 10.2%

Could you share which inhibition value was measured for CC(=O)NCc1cccc(C#Cc2cncnc2Nc2ccc(OCc3cccc(F)c3)c(Cl)c2)c1 ? -4.04%

Could you share which inhibition value was measured for COc1cc(N2CCN(C(C)C)CC2)ccc1Nc1nc(Nc2ccc(F)cc2C(N)=O)c2cc[nH]c2n1 ? -2.24%

Could you share which inhibition value was measured for O=C(Nc1n[nH]c2cc(-c3ccc(F)cc3)ccc12)C1CC1 ? -2.56%

Could you share which inhibition value was measured for COc1cc(Nc2nccc(Nc3ccc4c(C)n[nH]c4c3)n2)cc(OC)c1OC ? -9.69%

Could you share which inhibition value was measured for COc1ccc(-c2cc3c(N)ncnc3o2)cc1 ? -0.66%

Could you share which inhibition value was measured for COc1ccc(-c2cc(-c3c[nH]nc3-c3ccccn3)ccn2)cc1 ? 0.07%

Could you share which inhibition value was measured for CS(=O)(=O)CCNCc1coc(-c2ccc3ncnc(Nc4ccc(OCc5ccccc5)cc4)c3c2)c1 ? 2.03%

Could you share which inhibition value was measured for CN1CCC(n2cnc(-c3ccc(F)cc3)c2-c2ccnc(N)n2)CC1 ? -4.14%

###

assayedTarget: Casein kinase I isoform gamma-3 (Homo sapiens) (UniProt Q9Y6M4);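 further: reported value is the mean percent inhibition of the kinase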
Sequence (Q9Y6M4 whole entry, looked up, canonical isoform): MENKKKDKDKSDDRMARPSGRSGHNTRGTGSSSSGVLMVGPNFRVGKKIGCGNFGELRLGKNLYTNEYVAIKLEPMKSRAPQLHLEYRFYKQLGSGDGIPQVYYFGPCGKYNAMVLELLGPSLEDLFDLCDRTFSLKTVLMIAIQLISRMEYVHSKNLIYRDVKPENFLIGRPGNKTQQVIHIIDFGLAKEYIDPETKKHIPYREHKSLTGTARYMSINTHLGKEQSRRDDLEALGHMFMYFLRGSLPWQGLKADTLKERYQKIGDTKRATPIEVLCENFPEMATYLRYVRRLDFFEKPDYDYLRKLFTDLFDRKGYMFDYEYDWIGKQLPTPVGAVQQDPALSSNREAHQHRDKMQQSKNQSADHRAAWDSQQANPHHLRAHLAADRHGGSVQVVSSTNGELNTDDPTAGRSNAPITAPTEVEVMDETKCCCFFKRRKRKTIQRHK
experimentalParameters: at 0.1 µM
readoutType: inhibition

Could you share which inhibition value was measured for CCn1c(-c2nonc2N)nc2c(C#CC(C)(C)O)ncc(OC3CCNCC3)c21 ? 2.65%

Could you share which inhibition value was measured for Fc1ccc(-c2cc(-c3c[nH]nc3-c3ccccn3)ccn2)cc1 ? 4.09%

Could you share which inhibition value was measured for CCn1c(-c2nonc2N)nc2ccccc21 ? 0.54%

Could you share which inhibition value was measured for COc1ccc2c(-c3ccnc(Nc4cccc(OC(F)(F)F)c4)n3)cnn2n1 ? 4.96%

Could you share which inhibition value was measured for N#Cc1c(NC(=O)c2ccc(F)cc2)sc2c1CCCC2 ? 0.26%

Could you share which inhibition value was measured for Cc1cccc(Nc2ncc(-c3ccccc3)o2)c1 ? 2.18%

Could you share which inhibition value was measured for CNC(=O)c1cncc(/C=C/c2ccccc2Cl)c1 ? 0.25%

Could you share which inhibition value was measured for CS(=O)(=O)CCNCc1ccc(-c2ccc3ncnc(Nc4ccc(OCc5ccccc5)c(C(F)(F)F)c4)c3c2)o1 ? 3.19%

Could you share which inhibition value was measured for Cc1ccc2c(-c3ccnc(Nc4ccccc4)n3)c(-c3ccc(F)cc3)nn2n1 ? 7.8%

Could you share which inhibition value was measured for O=C(Nc1n[nH]c2cc(-c3ccc(F)cc3)ccc12)C1CC1 ? 1.93%

Could you share which inhibition value was measured for c1ccc(-c2nc3n(c2-c2ccc4c(c2)OCO4)CCC3)nc1 ? 0.57%

Could you share which inhibition value was measured for Nc1nc(-c2cccc(Cl)c2)c(-c2ccc3ncccc3n2)s1 ? 6.72%

Could you share which inhibition value was measured for Cc1ccc(O)cc1Nc1ccnc2cc(-c3ccccn3)ccc12 ? 4.03%

Could you share which inhibition value was measured for CCCN1CCC(c2ccc(Nc3nc(Nc4cc(F)ccc4C(N)=O)c4cc[nH]c4n3)c(OC)c2)CC1 ? 35.4%

Could you share which inhibition value was measured for COc1cc(Nc2nccc(Nc3ccc4c(C)n[nH]c4c3)n2)cc(OC)c1OC ? 0.39%

Could you share which inhibition value was measured for COc1cc2c(cc1Nc1nc(Nc3ccsc3C(N)=O)c3cc[nH]c3n1)N(C(=O)CN(C)C)CCC2(C)C ? 4.29%

Could you share which inhibition value was measured for COc1cc(N2CCN(C(C)C)CC2)ccc1Nc1nc(Nc2ccc(F)cc2C(N)=O)c2cc[nH]c2n1 ? 14.7%

Could you share which inhibition value was measured for CCn1c(-c2nonc2N)nc2cnc(Oc3cccc(NC(=O)c4ccc(N(C)C)cc4)c3)cc21 ? 0.95%
